Would you mind telling me the reported pIC50 of each entry?
Target: human P2X3 receptor (Homo sapiens (Human), UniProt P56373)
Sequence (P56373 whole entry): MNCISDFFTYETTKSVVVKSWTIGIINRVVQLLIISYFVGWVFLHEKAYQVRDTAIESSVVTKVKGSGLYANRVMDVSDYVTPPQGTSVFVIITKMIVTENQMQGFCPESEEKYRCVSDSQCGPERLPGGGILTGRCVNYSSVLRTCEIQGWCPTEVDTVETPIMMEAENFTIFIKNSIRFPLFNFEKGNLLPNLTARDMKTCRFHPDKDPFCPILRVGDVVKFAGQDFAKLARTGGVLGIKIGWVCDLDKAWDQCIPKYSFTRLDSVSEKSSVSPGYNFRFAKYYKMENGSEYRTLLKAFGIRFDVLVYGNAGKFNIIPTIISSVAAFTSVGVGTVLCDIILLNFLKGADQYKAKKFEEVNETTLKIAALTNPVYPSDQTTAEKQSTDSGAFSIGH
Assay: Evaluation of human P2X3 receptor inhibitory activity (Fluo-3 calcium fluorescence, FDSS 3000, ATP stimulation);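 also: stimulus was 50 nM ATP with fluorescence followed for 3 min, and the response per well was peak post-ATP fluorescence divided by the reading at measurement start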
Format: cell-based
Conditions: C6BU-1 cells stably expressing human P2X3 receptor
Answer as the number alone; pIC50 is minus log10 of concentration in mol/L.

Just so you know, measured pIC50 for `COC(=O)C(C)(C)Cn1c(=O)[nH]/c(=N\c2ccc(CC(C)C)c(Cl)c2)n(Cc2ccc(C)cc2)c1=O` came out at 8.22

// sample `CCn1c(=O)[nH]/c(=N\c2ccc(Oc3cc(C(=O)O)ncn3)cc2)n(Cc2ccc(Cl)cc2)c1=O` , its pIC50 was 8.10

pIC50 reading for `CCCOc1ccc(/N=c2\[nH]c(=O)n(C[C@H](C)C(=O)OC)c(=O)n2Cc2ccc(Cl)cc2)cc1` : 7.85

// sample `COC(=O)[C@H](C)[C@H](C)n1c(=O)[nH]/c(=N\c2ccc(OC(C)C)c(Br)c2)n(Cc2ccc(C)cc2)c1=O` , its pIC50 was 8.15

pIC50 reading for `CCn1c(=O)[nH]/c(=N\c2ccc(Oc3cc(F)cc(C(=O)OC)c3)cc2)n(Cc2ccc(Cl)cc2)c1=O` : 7.85

// sample `COC(=O)[C@@H](C)Cn1c(=O)[nH]/c(=N\c2ccc(Oc3ccnc(C)c3)cc2)n(Cc2ccc(C)cc2)c1=O` , its pIC50 was 8.22

The reported pIC50 of the compound `Cc1cc(/N=c2\[nH]c(=O)n(Cc3ccc(C(=O)O)o3)c(=O)n2Cc2ccc(Cl)cc2)ccc1OC(C)C` was 7.72

pIC50 reading for `COC(=O)[C@@H](C)[C@@H](C)n1c(=O)[nH]/c(=N\c2ccc(OC(C)C)c(F)c2)n(Cc2ccc(C)cc2)c1=O` : 7.64

// sample `CC(C)Oc1ccc(/N=c2\[nH]c(=O)n(CC(=O)N3CCN(C(=O)OC(C)(C)C)CC3)c(=O)n2Cc2ccc(Cl)cc2)cc1Cl` , its pIC50 was 6.66

Given item `Cc1cc(/N=c2\[nH]c(=O)n(-c3ccc(C(=O)O)cc3)c(=O)n2Cc2ccc(Cl)cc2)ccc1OC(C)C` , the value recorded as its pIC50 is 7.09

Per the record, `COc1cc(/N=c2\[nH]c(=O)n(CC3COC(C)(C)OC3)c(=O)n2Cc2ccc(Cl)cc2)ccc1OC(C)C` has pIC50 of 8.05

Kindly note the recorded pIC50 for `COC(=O)[C@@H](C)Cn1c(=O)[nH]/c(=N\c2ccc(CC(C)C)c(F)c2)n(Cc2ccc(Cl)cc2)c1=O` , which is 7.35

Kindly note the recorded pIC50 for `CC(C)Oc1ccc(/N=c2\[nH]c(=O)n(C[C@@H]3CC(=O)N([C@H](C)c4ccccc4)C3)c(=O)n2Cc2ccc(Cl)cc2)cc1F` , which is 7.66

compound `Cc1ccc(Cn2c(=O)n(C)c(=O)[nH]/c2=N\c2ccc(Oc3ccnc(CO)c3)cc2)cc1` , pIC50 observed: 7.59
